biological target: KDM4D (Homo sapiens); construct: KDM4AM1-L359,[38]; KDM4DM1-L359,[39]; KDM4EM1-R336,[30]; His6 (N); made in house; host or cells: Escherichia coli; assay: LC-MS demethylation activity assay, KDM4D; format: biochemical; conditions: 2 μM KDM4D, 10 μM peptide, 10 μM FAS, 100 μM LAA, 20 μM 2OG, HEPES pH 7.5, 2 h, room temperature
Square brackets hold non-standard residues; d marks the D form. Ends that are not written are not given here. Lys(Me3) = C[N+](C)(C)CCCC[C@H](N)C(=O)O; Lys(Me2) = CN(C)CCCC[C@H](N)C(=O)O
Measured substrate conversion (demethylation) by KDM4D values are reported for all entries that follow.
QUANTITY_MEASURED: substrate conversion (demethylation) by KDM4D

> print(dat)
                                  substance  result
1  KKKAR[Lys(Me3)]SAGAAKRKA [Peptide H1.4K25me3, 15-mer linker histone H1.4 residues 20-34 peptide, tri-methylated K25]    ~92%
2  KKKAAK[Lys(Me3)]AGGTPRKA [Peptide H1.2K26me3, 15-mer linker histone H1.2 residues 20-34 peptide, tri-methylated K26]    ~70%
3  KKKAAK[Lys(Me2)]AGGTPRKA [Peptide H1.2K26me2, 15-mer linker histone H1.2 residues 20-34 peptide, di-methylated K26]  20–35%

---

molecular target: KDM4D (Homo sapiens, UniProt Q6B0I6); construct: KDM4AM1-L359,[38]; KDM4DM1-L359,[39]; KDM4EM1-R336,[30]; His6 (N); made in house; host or cells: Escherichia coli; test: LC-MS demethylation activity assay, KDM4D; assay type: biochemical; settings: 2 μM KDM4D, 10 μM peptide, standard conditions, 2 h, room temperature
Sequence (Q6B0I6 1-359): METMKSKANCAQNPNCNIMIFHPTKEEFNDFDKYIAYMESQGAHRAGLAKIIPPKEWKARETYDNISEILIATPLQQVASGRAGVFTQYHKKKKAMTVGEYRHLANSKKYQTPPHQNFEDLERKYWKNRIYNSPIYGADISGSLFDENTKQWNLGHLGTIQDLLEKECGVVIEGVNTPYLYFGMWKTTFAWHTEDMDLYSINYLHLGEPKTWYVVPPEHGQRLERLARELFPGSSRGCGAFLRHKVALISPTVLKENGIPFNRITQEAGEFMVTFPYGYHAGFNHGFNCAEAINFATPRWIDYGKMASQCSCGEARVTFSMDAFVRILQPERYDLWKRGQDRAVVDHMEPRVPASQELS
Square brackets hold non-standard residues; d marks the D form. Ends that are not written are not given here. Lys(Me3) = C[N+](C)(C)CCCC[C@H](N)C(=O)O; Lys(Me2) = CN(C)CCCC[C@H](N)C(=O)O
Measured mono-methylated product formed by KDM4D values are reported for all entries that follow.
QUANTITY_MEASURED: mono-methylated product formed by KDM4D

> print(dat)
                                  substance  result
1  KKKAR[Lys(Me3)]SAGAAKRKA [Peptide H1.4K25me3, 15-mer linker histone H1.4 residues 20-34 peptide, tri-methylated K25]    ~62%
2  KKKA[Lys(Me3)]KAGATAGKRK [Peptide H1.3K24me3, 15-mer linker histone H1.3 residues 20-34 peptide, tri-methylated K24]    ~40%
3  KKKA[Lys(Me2)]KAGATAGKRK [Peptide H1.3K24me2, 15-mer linker histone H1.3 residues 20-34 peptide, di-methylated K24]    ~53%
4  KKKAAK[Lys(Me3)]AGGTPRKA [Peptide H1.2K26me3, 15-mer linker histone H1.2 residues 20-34 peptide, tri-methylated K26]    ~40%
